B1: MeV phosphoprotein (P), wild type [measles virus (strain IC-B)] / MeV L_(1708), C-terminally truncated large polymerase protein lacking the methyltransferase domain [measles virus (strain IC-B)] (parent complex)
chain 1: MAEEQARHVKNGLECIRALKAEPIGSLAVEEAMAAWSEISDNPGQDRATCKEEEAGSSGLSKPCLSAIGSTEGGAPRIRGQGSGESDDDAETLGIPSRNLQASSTGLQCYHVYDHSGEAVKGIQDADSIMVQSGLDGDSTLSGGDDESENSDVDIGEPDTEGYAITDRGSAPISMGFRASDVETAEGGEIHELLKLQSRGNNFPKLGKTLNVPPPPNPSRASTSETPIKKGTDARLASFGTEIASLLTGGATQCARKSPSEPSGPGAPAGNVPECVSNAALIQEWTPESGTTISPRSQNNEEGGDYYDDELFSDVQDIKTALAKIHEDNQKIISKLESLLLLKGEVESIKKQINRQNISISTLEGHLSSIMIAIPGLGKDPNDPTADVELNPDLKPIIGRDSGRALAEVLKKPVASRQLQGMTNGRTSSRGQLLKEFQLKPIGKKVSSAVGFVPDTGPASRSVIRSIIKSSRLEEDRKRYLMTLLDDIKGANDLAKFHQMLMKIIMK
chain 2: MDSLSVNQILYPEVHLDSPIVTNKIVAILEYARVPHAYSLEDPTLCQNIKHRLKNGFSNQMIINNVEVGNVIKSKLRSYPAHSHIPYPNCNQDLFNIEDKESTRKIRELLKKGNSLYSKVSDKVFQCLRDTNSRLGLGSELREDIKEKIINLGVYMHSSQWFEPFLFWFTVKTEMRSVIKSQTHTCHRRRHTPVFFTGSSVELLISRDLVAIISKESQHVYYLTFELVLMYCDVIEGRLMTETAMTIDARYAELLGRVRYMWKLIDGFFPALGNPTYQIVAMLEPLSLAYLQLRDITVELRGAFLNHCFTEIHDVLDQNGFSDEGTYHELIEALDYIFITDDIHLTGEIFSFFRSFGHPRLEAVTAAENVRKYMNQPKVIVYETLMKGHAIFCGIIINGYRDRHGGSWPPLTLPLHAADTIRNAQASGEGLTHEQCVDNWKSFAGVRFGCFMPLSLDSDLTMYLKDKALAALQREWDSVYPKEFLRYDPPKGTGSRRLVDVFLNDSSFDPYDMIMYVVSGAYLHDPEFNLSYSLKEKEIKETGRLFAKMTYKMRACQVIAENLISNGIGKYFKDNGMAKDEHDLTKALHTLAVSGVPKDLKESHRGGPVLKTYSRSPVHTSTRNVKAEKGFVGFPHVIRQNQDTDHPENIETYETVSAFITTDLKKYCLNWRYETISLFAQRLNEIYGLPSFFQWLHKRLETSVLYVSDPHCPPDLDAHVPLCKVPNDQIFIKYPMGGIEGYCQKLWTISTIPYLYLAAYESGVRIASLVQGDNQTIAVTKRVPSTWPYNLKKREAARVTRDYFVILRQRLHDIGHHLKANETIVSSHFFVYSKGIYYDGLLVSQSLKSIARCVFWSETIVDETRAACSNIATTMAKSIERGYDRYLAYSLNVLKVIQQILISLGFTINSTMTRDVVIPLLTNNDLLIRMALLPAPIGGMNYLNMSRLFVRNIGDPVTSSIADLKRMILASLMPEETLHQVMTQQPGDSSFLDWASDPYSANLVCVQSITRLLKNITARFVLIHSPNPMLKGLFHDDSKEEDERLAAFLMDRHIIVPRAAHEILDHSVTGARESIAGMLDTTKGLIRASMRKGGLTSRVITRLSNYDYEQFRAGMVLLTGRKRNVLIDKESCSVQLARALRSHMWARLARGRPIYGLEVPDVLESMRGHLIRRHETCVICECGSVNYGWFFVPSGCQLDDIDKETSSLRVPYIGSTTDERTDMKLAFVRAPSRSLRSAVRIATVYSWAYGDDDSSWNEAWLLARQRANVSLEELRVITPISTSTNLAHRLRDRSTQVKYSGTSLVRVARYTTISNDNLSFVISDKKVDTNFIYQQGMLLGLGVLETLFRLEKDTGSSNTVLHLHVETDCCVIPMIDHPRIPSSRKLELRAELCTNPLIYDNAPLIDRDATRLYTQSHRRHLVEFVTWSTPQLYHILAKSTALSMIDLVTKFEKDHMNEISALIGDDDINSFITEFLLIEPRLFTIYLGQCAAINWAFDVHYHRPSGKYQMGELLSSFLSRMSKGVFKVLVNALSHPKIYKKFWHCGIIEPIHGPSLDAQNLHTTVCNMVYTCYMTYLDLLLNEELEEFTFLLCESDEDVVPDRFDNIQAKHLCVLADLYCQPGTCPPIRGLRPVEKCAVLTDHIKAEARLSPAGSSWNINPIIVDHYSCSLTYLRRGSIKQIRLRVDPGFIFDALAEVNVSQPKVGSN

- Variants of: B1
- test: co-immunoprecipitation (IP anti-HA of P, immunoblot of L anti-FLAG, densitometry); lysates of transiently transfected cells, lysed 24 hours after transfection; IP at 4°C; parent: 100; read off a plot
Examples of variants with documented percent of parent follow.

variant name	percent of parent
chain 1 G365A, chain 1 H366A, chain 1 L367A, chain 1 S368A	~12 % of wild type P
chain 1 S369A, chain 1 I370A, chain 1 M371A, chain 1 I372A	~14 % of wild type P
chain 1 S361A, chain 1 T362A, chain 1 L363A, chain 1 E364A	~3 % of wild type P
chain 1 I374A, chain 1 P375A, chain 1 G376A, chain 1 L377A	~9 % of wild type P
